# experimental-system: Neu5Ac(a2-3)Gal(b1-4)GlcNAc(b1-2)Man
# experimental-details: glycan array binding signal (z-score within array); higher = stronger binding
# measurement-parameters: glycan notation: IUPAC condensed, linker removed
This excerpt belongs to a sample that is enriched for the strongest signals.
For each of the binders below, state its glycan array binding signal (z-score).
Could you respond with only the numeric value?

Qu. Recorded glycan array binding signal (z-score) of SpnanA (Streptococcus pneumoniae), P62575 (protein) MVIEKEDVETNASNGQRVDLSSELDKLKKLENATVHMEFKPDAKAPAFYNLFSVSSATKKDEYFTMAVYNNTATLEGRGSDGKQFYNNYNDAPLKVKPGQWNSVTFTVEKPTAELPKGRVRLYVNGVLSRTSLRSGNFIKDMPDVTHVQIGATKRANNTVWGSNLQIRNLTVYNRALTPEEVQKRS , please.
Ans. 2.64

Qu. What about this binder? Als3-41 (Candida albicans) (protein) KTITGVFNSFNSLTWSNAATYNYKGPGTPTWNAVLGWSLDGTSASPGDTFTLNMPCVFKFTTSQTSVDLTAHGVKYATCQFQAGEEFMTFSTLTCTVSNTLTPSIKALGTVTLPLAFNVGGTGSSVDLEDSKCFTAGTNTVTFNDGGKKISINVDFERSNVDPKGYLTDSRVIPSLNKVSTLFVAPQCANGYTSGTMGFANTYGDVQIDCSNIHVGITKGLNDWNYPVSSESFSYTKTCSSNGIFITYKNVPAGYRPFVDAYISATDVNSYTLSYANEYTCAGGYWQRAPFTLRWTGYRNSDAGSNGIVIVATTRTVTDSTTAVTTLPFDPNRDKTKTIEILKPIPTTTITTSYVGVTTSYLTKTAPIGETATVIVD
Ans. 0.213
